System: MOLT-4
Format: cell-based, human
Ends that are not written are not given here.
REPORTED PROPERTY: IC50 (nM)
# number only, unit nM dropped from output

Q. I'd like to know its IC50. The sequence in question is MAVPPTYADLGKSARDVFTKGYGFGLMRQIKIWFQNRRMKWKK [N-ANTP]
A. 1100

---

Test system: HeLa
Ends that are not written are not given here.
REPORTED PROPERTY: pIC50
Value format note: pIC50 is -log10 of concentration (mol/L); just state the number.

Q. Param readout= pIC50; system= HeLa; entry= MAVPPTYADLGKSARDVFTKGYGFGLMRQIKIWFQNRRMKWKK [N-ANTP] ; returns value.
A. 5.57

---

Tested on: T3M4
Format: cell-based
Procedure: To determine apoptosis, cells were subjected to staining with 100 μg/ml acridine orange (AcOr) and 100 μg/ml ethidium bromide (EtBr) in PBS. […] The cells were then visualized by fluorescence microscopy (Olympus IX51) and images were recorded with an Olympus DP70 camera, using a SWB filter. In each independent experiment, in which early and late apoptotic cells were counted, approximately 250 cells were counted for each treatment. […]
Ends that are not written are not given here.
REPORTED PROPERTY: IC50 (nM)
Field: numeric (nM). Do not append units.

Q. API: value(readout=IC50, system=T3M4) for record MAVPPTYADLGKSARDVFTKGYGFGLMRQIKIWFQNRRMKWKK [N-ANTP]
A. 1300

---

Tested on: Mec-1
Format: cell-based, human
Ends that are not written are not given here.
REPORTED PROPERTY: IC50 (nM)
Could you give me the number in nM? Just the number is fine.

Q. Name the recorded IC50 for MAVPPTYADLGKSARDVFTKGYGFGLMRQIKIWFQNRRMKWKK [N-ANTP] .
A. 930
